Experiment: Animal Experiment: serum concentration and bioavailability of OMP in rabbits (I.V., oral, rectum)
Assay type: in vivo, albino rabbits
Conditions: rabbit, in vivo, po, 10 mg/kg, serum concentration
Measurement Name: concentration at 4 h (ng/mL)

INSERT INTO measurements (compound, readout_value) VALUES
  ('COc1ccc2[nH]c([S+]([O-])Cc3ncc(C)c(OC)c3C)nc2c1 (stereo not shown) [OMP, Omeprazole]', 591);

###

Test: Animal Experiment: serum concentration and bioavailability of OMP in rabbits (I.V., oral, rectum)
Type: in vivo, albino rabbits
Conditions: rabbit, serum, po, 10 mg/kg, oral, 20 mg OMP per 2 kg, 9 hr, individual animals; read-out: serum concentration
Measurement Name: concentration at 9 h (ng/mL)

INSERT INTO results (compound, output_unit, readout_value) VALUES
  ('COc1ccc2[nH]c([S+]([O-])Cc3ncc(C)c(OC)c3C)nc2c1 (stereo not shown) [OMP, Omeprazole]', 'ng/mL', 341);

Each recorded value in this set is attributed to patent US5219870A.
